What follows is literature data on IC50 for ADAMTS4 (Homo sapiens, UniProt O75173).
Hi! Just check whether IC50 is below 1000 nM. Below gives Yes, equal or above gives No.

Completed entries (count: 4):
>>> category_label("CC(C)[C@@H](NS(=O)(=O)c1ccc(-c2ccc(COc3ccc(Oc4ccccn4)cc3)cc2)cc1)C(=O)O")
"Yes"
>>> category_label("CC(C)[C@H](Cc1ccc(C(F)(F)F)cc1)C(=O)NC[C@@]1(C2CC2)NC(=O)NC1=O")
"Yes"
>>> category_label("O=C1NC(=O)C(CNC(=O)c2cnn(-c3ccc(F)cc3)n2)(c2nccs2)N1 (centres unmarked)")
"No"
>>> category_label("CC(C)C1(CNC(=O)c2cnn(-c3cccc(C#N)c3)n2)NC(=O)NC1=O (racemic)")
"No"

I'd appreciate it if you could check whether CC(C)C1(CNC(=O)c2cnn(-c3cccc(F)c3)n2)NC(=O)NC1=O (racemic) has IC50 smaller than 1000 nM.
No

I'd appreciate it if you could check whether O=C1NC(=O)C(CNC(=O)c2cnn(-c3ccc(F)cc3F)n2)(C2CCC2)N1 (centres unmarked) has IC50 smaller than 1000 nM.
No

* * *

What follows is literature data on pIC50 for ADAMTS4 (Homo sapiens, UniProt O75173).
Give bare numbers, as −log10 of the molar value.

Please supply pIC50 for each of the following items, keeping them in order.
1. Cc1cccc(Oc2ccc(OCc3ccc(-c4ccc(S(=O)(=O)N[C@@H](C(=O)O)C(C)C)cc4)cc3)cc2)n1
2. CC(C)[C@@H](NS(=O)(=O)c1ccc(-c2ccc(C[S+]([O-])c3cc4ccccc4o3)cc2)cc1)C(=O)O (stereo partly drawn)
3. O=C1NC(=O)[C@](CNC(=O)c2cnn(-c3cnccn3)n2)(C2CC2)N1

1: 6.15; 2: 4.70; 3: 4.62

* * *

What follows is literature data on IC50 for UniProtKB O75173.
One number for each entry, in µM.

>>> observed_value("CC(C)[C@@H](NS(=O)(=O)c1ccc(-c2ccc(COc3cccc(O)c3)cc2)cc1)C(=O)O")
1.1

Please supply IC50 for each of the following items, keeping them in order.
1. CC(C)[C@@H](NS(=O)(=O)c1ccc(-c2ccc(OC(=O)c3ccoc3)cc2)cc1)C(=O)O
2. O=C1NC(=O)[C@](CNC(=O)c2cnn(-c3ccc(F)cc3F)n2)(C2CC2)N1

[8.6, 4.25]

* * *

What follows is literature data on pIC50 for ADAMTS4 (Homo sapiens).
pIC50: −log10 of the molar value.
Label MET when pIC50 is at or above 6; anything below gets NOT MET.

Completed entries (count: 8):
>>> category_label("CC(C)[C@@H](NS(=O)(=O)c1ccc(-c2ccc(COc3cccc(O)n3)cc2)cc1)C(=O)O")
"MET"
>>> category_label("O=C(O)c1cccc(CN([C@]2(C(=O)O)C[C@H]2c2cccc(Oc3ccccc3)c2)S(=O)(=O)c2ccc(-c3ccc(Cl)cc3)cc2)c1 (relative stereo)")
"MET"
>>> category_label("COc1cccc([C@@H]2CC2(C(=O)O)N(CC(=O)O)S(=O)(=O)c2ccc(-c3ccc(Cl)cc3)cc2)c1 (stereo in doubt)")
"MET"
>>> category_label("O=C1NC(=O)C(CNC(=O)c2cnn(-c3ccc(F)cc3)n2)(C2CCCCC2)N1 (centres unmarked)")
"NOT MET"
>>> category_label("Cn1ccnc1C1(CNC(=O)c2cnn(-c3cc(F)c(F)c(F)c3)n2)NC(=O)NC1=O (racemic)")
"MET"
>>> category_label("O=C1NC(=O)C(CNC(=O)c2cnn(-c3cccc(F)c3)n2)(C2CCC2)N1 (centres unmarked)")
"NOT MET"
>>> category_label("CC(C)[C@@H](NS(=O)(=O)c1ccc(-c2ccc(COc3cccc4[nH]ccc34)cc2)cc1)C(=O)O")
"NOT MET"
>>> category_label("O=C1NC(=O)[C@](CNC(=O)c2cnn(-c3cnsc3)n2)(C2CC2)N1")
"NOT MET"

Form field: pIC50 at least 6? Entry: O=C(O)c1cccnc1CN([C@]1(C(=O)O)C[C@H]1c1ccccc1)S(=O)(=O)c1ccc(-c2ccc(Cl)cc2)cc1 (relative stereo)
MET

Form field: pIC50 at least 6? Entry: CNC(=O)c1cn(CCN([C@]2(C(=O)O)C[C@H]2c2ccccc2)S(=O)(=O)c2ccc(-c3ccc(Cl)cc3)cc2)cn1 (relative stereo)
MET

Form field: pIC50 at least 6? Entry: O=C(O)c1cccc(CN([C@]2(C(=O)O)C[C@H]2c2cccc(NCCN3CCCCC3)c2)S(=O)(=O)c2ccc(-c3ccc(Cl)cc3)cc2)c1 (relative stereo)
MET

Form field: pIC50 at least 6? Entry: CC(C)[C@@H](NS(=O)(=O)c1ccc(-c2ccc(COc3cccc(C(=O)C4CCCCC4)c3)cc2)cc1)C(=O)O
MET
